B1: LINE1-mini (parent)
chain: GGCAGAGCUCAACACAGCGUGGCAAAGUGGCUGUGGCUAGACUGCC

Variants of: B1
Assay: self-cleavage, relative activity (ratio to wild type); higher = more cleavage; in vitro, sequencing; the parent is a self-cleaving ribozyme
Reported Property: self-cleavage
Just the number.

Query: Name the reported self-cleavage value associated with the variant G19A G36U
Reply: 0.09
